Exercise: state measured Mean Fluorescence Intensity (MFI) for each of the binders provided.
# Measurement target: T1, human CD20 antigen (human, UniProt P11836 1-297)
# T1 construct: whole, on cells; also called Bp35; B1
# T1 sequence (looked up): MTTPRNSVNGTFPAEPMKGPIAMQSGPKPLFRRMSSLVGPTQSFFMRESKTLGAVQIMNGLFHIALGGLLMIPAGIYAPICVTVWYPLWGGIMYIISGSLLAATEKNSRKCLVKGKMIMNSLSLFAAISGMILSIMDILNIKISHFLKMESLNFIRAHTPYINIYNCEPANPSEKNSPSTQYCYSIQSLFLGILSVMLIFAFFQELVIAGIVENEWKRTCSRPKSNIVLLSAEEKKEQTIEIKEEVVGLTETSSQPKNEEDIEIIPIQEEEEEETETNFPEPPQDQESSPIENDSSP
# Assay text: flow cytometry, CHO.CD20 cells (CD20 positive)
Give a bare numeral; the unit MFI is implied.

Request: Which Mean Fluorescence Intensity (MFI) reading was recorded for the binder optimized humanized mAb 1589 (antibody, V domains shown) VH: QVQLVQSGAEVKKPGSSVKVSCKASGYTFTSYNMHWVRQAPGQGLEWIGAIYPGNGATSYNQKFKGKATITADKSTSTAYMELSSLRSDDTAVYYCARSTYYAGDWNFNNWGQGTLVTVSS VL: DIQMTQSPSSLSASVGDRVTITCRASSSVSYIHWFQQKPGKAPKPLIYAASSLQSGVPSRFSGSGSGTDYTLTISSLQPEDFATYYCQQWTSNPPTFGGGTKLEIK ?
Result: 140

Request: Same lookup for optimized humanized mAb 1588 (antibody, V domains shown) VH: QVQLVQSGAEVKKPGSSVKVSCKASGYTFTFYNMHWVRQAPGQGLEWIGAIYPGNGDTSYNQKFKGKATITADKSTSTAYMELSSLRSDDTAVYYCARSTYYAGDWNFNNWGQGTLVTVSS VL: DIQMTQSPSSLSASVGDRVTITCRASSSVSYIHWFQQKPGKAPKPLIYAASSLQSGVPSRFSGSGSGTDYTLTISSLQPEDFATYYCQQWTSNPPTFGGGTKLEIK , please.
Result: 140

Request: Same lookup for optimized humanized mAb 1692 (antibody, V domains shown) VH: QVQLVQSGAEVKKPGSSVKVSCKASGYTFTSYNMHWVRQAPGQGLEWIGAIYPGNGDTSYNQKFKGKATITADKSTSTAYMELSSLRSDDTAVYYCARSTYYAGDWNFGNWGQGTLVTVSS VL: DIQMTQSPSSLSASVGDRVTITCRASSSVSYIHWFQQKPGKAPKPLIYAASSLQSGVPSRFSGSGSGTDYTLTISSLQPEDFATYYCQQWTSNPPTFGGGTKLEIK , please.
Result: 137

Request: Same lookup for optimized humanized mAb 1590 (antibody, V domains shown) VH: QVQLVQSGAEVKKPGSSVKVSCKASGYTFTSYNMHWVRQAPGQGLEWIGAIYPGNGLTSYNQKFKGKATITADKSTSTAYMELSSLRSDDTAVYYCARSTYYAGDWNFNNWGQGTLVTVSS VL: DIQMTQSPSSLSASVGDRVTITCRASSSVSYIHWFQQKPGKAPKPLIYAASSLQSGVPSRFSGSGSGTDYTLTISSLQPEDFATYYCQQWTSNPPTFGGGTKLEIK , please.
Result: 135

Request: Same lookup for optimized humanized mAb 1237 (antibody, V domains shown, detected with anti-human Ig Fc) VH: QVQLVQSGAEVKKPGSSVKVSCKASGYTFTSYNMHWVRQAPGQGLEWIGAIYPGNGDTSYNQKFKGKATITADKSTSTAYMELSSLRSDDTAVYYCARSTYYAGDWNFNNWGQGTLVTVSS VL: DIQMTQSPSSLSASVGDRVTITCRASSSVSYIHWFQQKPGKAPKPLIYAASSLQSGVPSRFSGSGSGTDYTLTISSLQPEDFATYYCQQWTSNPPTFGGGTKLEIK , please.
Result: 106

Request: Same lookup for optimized humanized mAb 1652 (antibody, V domains shown) VH: QVQLVQSGAEVKKPGSSVKVSCKASGYTFTSYNMHWVRQAPGQGLEWIGAIYPGNGATSYNQKFKGKATITADKSTSTAYMELSSLRSDDTAVYYCARSTYYAGDWNFNNWGQGTLVTVSS VL: DIQMTQSPSSLSASVGDRVTITCRASSSVSYIHWFQQKPGKAPKPLIYAASSLQSGVPSRFSGSGSGTDYTLTISSLQPEDFATYYCQQWQSNPPTFGGGTKLEIK , please.
Result: 135
